Vascular endothelial growth factor receptor 2 (Homo sapiens, UniProt P35968) IC50, compiled from various sources.

Before answering, review these 8 worked examples.
CCNC(=O)c1coc2cc(Oc3ccnc4cc(OC)c(C(N)=O)cc34)c(F)cc12
50 to 200 nM
CCCC(C)S(=O)(=O)Nc1ccc(F)c(C(=O)c2c[nH]c3ncc(C)cc23)c1F (stereo not shown)
≤ 10000 nM
O=C(Nc1cc(-c2cn[nH]c2)cc(C(F)(F)F)c1)Nc1ccc(Oc2ccnc(NC(=O)C3CC3)c2)c(F)c1
15.6 nM
Oc1cc(O)cc(Cc2c[nH]c3ncc(-c4ccsc4)cc23)c1
≤ 10000 nM
Cn1cc(-c2cc(-c3ccc(N4C[C@H]5CN(C(=O)C(O)c6ccccc6)C[C@H]5C4)nc3)c3c(C#N)cnn3c2)cn1 (stereo partly shown)
10 to 50 nM
COc1cc2nccc(Oc3ccc(NC(=O)c4c(C)cc(C)n(C5CCCC5)c4=O)cc3F)c2nc1OC
≤ 100 nM
Cc1cnc2[nH]cc(C(=O)c3c(F)ccc(NS(=O)(=O)N4CCCC4)c3F)c2c1
≤ 10000 nM
Cn1cc(-c2cnc3ccc(C(=O)c4cccc(NC(=O)Nc5ccc(Cl)c(C(F)(F)F)c5)c4)cc3n2)cn1
< 100 nM

Request: # input compound: `COc1cc2nccc(Oc3ccc(NC(=S)NCc4cccnc4)c(Cl)c3)c2cc1C(N)=O` ; wanted: its IC50
Result: 50 to 200 nM

Request: Request the reported IC50 associated with `COc1cnc2[nH]cc(C(=O)c3c(F)ccc(NS(=O)(=O)c4cc(F)ccc4F)c3F)c2c1`
Result: ≤ 10000 nM

Request: Request the reported IC50 associated with Cc1cc(NC(=O)Nc2cc(C(F)(F)F)ccc2F)ccc1C1CN=C2c3ccccc3NC(=O)N2C1 (stereo not shown)
Result: 390 nM

Request: Tell me the measured IC50 of `COc1cc2nccc(Oc3ccc(NC(=O)c4c(C)nc(C)c(C(C)C)c4O)cc3)c2nc1OC` , please.
Result: ≤ 100 nM

Request: Give the measured IC50 of `Cc1ccc(NC(=O)Nc2cccc(C(F)(F)F)c2)cc1C(=O)Nc1cnc(Nc2cccnc2)nc1` .
Result: 27.8 nM

Request: Recorded IC50 of `COc1cc(OC)cc(N(CC2CC2)c2ccc3ncc(-c4cn(CCO)nn4)nc3c2)c1` , please.
Result: 398 nM

Request: Look up IC50: `CC(=O)Nc1ccc(C(=O)Nc2sc(Nc3ccccc3)nc2C(N)=O)cc1`
Result: 59 nM

Request: Look up IC50 for this compound: `CCCS(=O)(=O)Nc1ccc(F)c(C(=O)c2c[nH]c3ncc(-c4ccc(Cl)c(C(F)(F)F)c4)cc23)c1F`
Result: ≤ 10000 nM

Request: # input compound: `CCOc1ccn(-c2ccc(F)cc2)c(=O)c1C(=O)Nc1ccc(Oc2ccnc3cc(OCCCOC)c4c(c23)OCCO4)c(F)c1` ; wanted: its IC50
Result: 50 to 500 nM

Request: Any idea what its IC50 is? The compound is `COc1cc(CNc2ccc(Cc3c[nH]c4ncncc34)c(F)n2)c(F)cn1`
Result: ≤ 10000 nM

---

Collected literature values of IC50 measured for UniProtKB P35968.

COc1cc2nccc(Oc3ccc(NC(=O)c4c(C)n(C)c(C)c(C#N)c4=O)cc3)c2nc1OC
> 300 nM

Request: Write down the reported IC50 of `CCCS(=O)(=O)Nc1ccc(F)c(C(=O)c2c[nH]c3ncc(-c4ccc(OCCCN(C)C)nc4)cc23)c1F` , test system: UniProtKB P35968.
Result: ≤ 10000 nM

Request: Find the measured IC50: item `O=C(Nc1cccc(C(=O)c2ccc3nccnc3c2)c1)Nc1ccc(Cl)c(C(F)(F)F)c1` , target or system UniProtKB P35968.
Result: < 100 nM

Request: UniProtKB P35968 / IC50 / `COc1cc(OC)cc(N(CCNC(C)C)c2ccc3ncc(C(=O)N4CCOCC4)nc3c2)c1` : value?
Result: > 1000 nM

Request: Give UniProtKB P35968 IC50 for `COc1ccn(-c2ccc(F)cc2)c(=O)c1C(=O)Nc1ccc(Oc2ccnc3cc(OCCCN4CCCCC4)c4c(c23)OCCO4)cc1Cl`
Result: 50 to 500 nM

Request: Test system UniProtKB P35968; read-out IC50; what value for `COc1cc(OC)cc(N(CC2CC2)c2ccc3ncc(-c4ccn(C)c4)nc3c2)c1` ?
Result: 295 nM

Request: Tell me reported IC50 for `COc1ccc(CN2C3CC2CN(c2ccc(-c4cc(N5CC(C)(O)C5)cn5ncc(C#N)c45)cn2)C3)cn1` , tested with UniProtKB P35968.
Result: 9.67 nM

---

Record set: IC50 | Vascular endothelial growth factor receptor 2 (Homo sapiens, UniProt P35968) | literature, multiple sources.

Solved entries:
Cn1cc(-c2cc(Oc3cccc(NC(=O)c4ccc(OC(F)(F)F)cc4OC(F)(F)F)c3)ccn2)cn1
≤ 10000 nM
Cc1cc(OC2CCN(C)CC2)c2oc3cc(Oc4ccc(CCC(=O)NC5CCCC5)nc4)ccc3c(=O)c2c1
1000 to 10000 nM
CC(F)(F)c1cc(NC(=O)Nc2ccc(Oc3ccnc(NC(=O)C4CC4)c3)cc2)ccc1F
11.5 nM

Request: Would you kindly share the measured IC50 for `Cn1cc(-c2cc(-c3cnc(N4C[C@@H]5C[C@@](C)(NC(=O)c6ncccc6F)C[C@@H]5C4)cn3)c3c(C#N)cnn3c2)cn1` ?
Result: 10 to 50 nM

---

Target or system Vascular endothelial growth factor receptor 2 (Homo sapiens, UniProt P35968); metric IC50; compiled from varied reports.

Study these solved cases before continuing.
c1cncc(-c2cnc3[nH]ccc3c2)c1
≤ 10 µM
CS(=O)(=O)Nc1cccc(-c2cnc3[nH]cc(C(=O)c4ccc(Cl)cc4)c3c2)c1
≤ 10 µM
COc1cc(OC)cc(N(CC2CO2)c2ccc3ncc(-c4ccc(N)nc4)nc3c2)c1 (centres unmarked)
0.275 µM

Request: Param readout = IC50; param system = Vascular endothelial growth factor receptor 2 (Homo sapiens, UniProt P35968); param query = `Cc1oncc1S(=O)(=O)Nc1cccc(C(=O)c2c[nH]c3ncc(C#N)cc23)c1F` ; response: value
Result: ≤ 10 µM

Request: Please tell me: IC50 of `CCCS(=O)(=O)Nc1ccc(F)c(C(=O)c2ncnc3ccc(-c4cccnc4F)cc23)c1F` , system Vascular endothelial growth factor receptor 2 (Homo sapiens, UniProt P35968)?
Result: > 3 µM

Request: Missing value: IC50, Vascular endothelial growth factor receptor 2 (Homo sapiens, UniProt P35968), entry `COc1cccc(C(=O)c2c[nH]c3nccc(-c4ccc(C(N)=O)cc4)c23)c1` . Fill in?
Result: ≤ 10 µM

Request: API: value(readout=IC50, system=Vascular endothelial growth factor receptor 2 (Homo sapiens, UniProt P35968)) for record `Fc1cccc(-c2ccnc3[nH]ccc23)c1`
Result: ≤ 10 µM

Request: Hello, I am looking for reported IC50 with Vascular endothelial growth factor receptor 2 (Homo sapiens, UniProt P35968) for `COCCOc1ccc(NC(=O)Nc2ccc(Oc3cc(-c4nnco4)ncn3)cc2)cc1C(F)(F)F` . Could you help?
Result: ≤ 10 µM

---

Here, compounds appear alongside IC50 reported for Vascular endothelial growth factor receptor 2 (Homo sapiens) in the literature.

Cn1cc(-c2cc(-c3cnc(N4C[C@@H]5CN(S(=O)(=O)c6c(F)cccc6Cl)C[C@@H]5C4)cn3)c3c(C#N)cnn3c2)cn1
10 to 50 nM
CCCS(=O)(=O)Nc1ccc(F)c(C(=O)c2c[nH]c3ncc(C#CCOC)cc23)c1F
≤ 10000 nM
CCCS(=O)(=O)Nc1ccc(F)c(C(=O)c2c[nH]c3ncc(-c4ccc(S(=O)(=O)NCCO)cc4)cc23)c1F
≤ 10000 nM
O=C(c1ccc(NCC2CC2)nc1)c1c[nH]c2ncccc12
≤ 10000 nM
O=C(Nc1cccc(C#Cc2ccc3nccn3n2)c1)c1ccccc1
2360 nM

Request: Identify the measured IC50 of `O=C(Nc1ccc(Oc2ncnc3[nH]c(-c4ccccn4)cc23)cc1F)NC1CC1` for Vascular endothelial growth factor receptor 2 (Homo sapiens).
Result: 26 nM

Request: Test system Vascular endothelial growth factor receptor 2 (Homo sapiens); read-out IC50; what value for `CNC(=O)c1cc(-c2cnc3ccc(N(CCNCC(F)(F)F)c4cc(OC)cc(OC)c4)cc3n2)ccn1` ?
Result: > 1000 nM

Request: Lab note: need IC50 with Vascular endothelial growth factor receptor 2 (Homo sapiens) for entry `COc1ncccc1CNc1ccc(Cc2c[nH]c3ncncc23)c(F)n1` , please look it up.
Result: ≤ 10000 nM

Request: Form: Entry = `NC(=O)/C(=C1\Nc2ccccc2S1)c1nc(C(F)(F)F)cc(C(F)(F)F)n1` | System = Vascular endothelial growth factor receptor 2 (Homo sapiens) | IC50 = ____
Result: 60 nM

Request: Look up IC50 with Vascular endothelial growth factor receptor 2 (Homo sapiens) for this compound: Cn1cc(-c2ccnc3cc(-c4ccc(OCC(O)CN5CCOCC5)cc4)oc23)cn1 (stereo not shown)
Result: 300 to 3000 nM

Request: For the record `COc1cccc(-c2c[nH]c3ncccc23)c1` , what value of IC50 is listed for Vascular endothelial growth factor receptor 2 (Homo sapiens)?
Result: ≤ 10000 nM

Request: Give IC50 (Vascular endothelial growth factor receptor 2 (Homo sapiens)) of the following compound: `Cc1cc(NC(=O)Nc2cc(OC(C)C)cc(C(F)(F)F)c2)cnc1Oc1ccnc(NC(=O)C2CC2)c1`
Result: 30.2 nM

Request: Give the reported IC50 for `COc1cccc(-c2cnc(Nc3ccc(N4CCN(C)CC4)cc3)o2)c1` (system: Vascular endothelial growth factor receptor 2 (Homo sapiens)).
Result: < 1000 nM

Request: Short answer please: IC50, Vascular endothelial growth factor receptor 2 (Homo sapiens), entry `Cn1ccc(-c2cc(-c3ccc(N4C[C@@H]5C[C@@](C)(NC(=O)c6ncccc6C#N)C[C@@H]5C4)nc3)c3c(C#N)cnn3c2)n1`
Result: 50 to 100 nM
